test: NCI Yeast Anticancer Drug Screen. Data for the mec2-1 strain (AID 157); conditions: S. cerevisiae mec2-1 strain, at 50.0 µM, stronger effect = higher value
This is part of a sample that, as a whole, favours compounds with a hit. Of some 79,000 tested, about 15% had one in any assay.
Reported growth inhibition is given for each of the following molecules.

| MOLECULE | UNIT_TEXT | growth inhibition |
| --- | --- | --- |
| O=C(Nc1ccccc1)c1cc2ccccc2oc1=O | % | -2.65 |
| NC(=O)c1nc(N)nc(N)c1[N+](=O)[O-] | % | -15.1 |
| N#Cc1ccc(/C=N\NC(=O)CCSCCC(=O)N/N=C/c2ccc(C#N)cc2)cc1 | % | 24.9 |
| COc1cc(OC)c(NC(N)=O)cc1Cl | % | -35 |
| CN(C)CCOc1ccccn1 | % | -27.4 |
| O=C(O)CSc1nc2ccc(N3C(=O)C4C5C=CC(C5)C4C3=O)cc2s1 (configuration not stated) | % | -2.65 |
| O=S(=O)(Nc1ccn(-c2ccccc2)n1)c1ccc(NCc2c3ccccc3nc3cc(Cl)ccc23)cc1 | % | 21.2 |
| CS(=O)(=O)OC1CCCSc2ccccc21 (configuration not stated) | % | 2 |
| CC(=O)OCC1OC(OC(C)=O)C(NS(=O)(=O)c2ccc(C)cc2)C(OC(C)=O)C1OC(C)=O (configuration not stated) | % | 4.25 |
| COC(=N)C(C)C | % | 14.9 |
| COc1ccc2[nH]c(C)cc2c1CN | % | -14.3 |
| COc1ccc(/C=N\NC(=O)N/N=C/c2ccc(OC)c(Br)c2)cc1Br | % | 39.7 |
| O=C(c1ccc(Cl)cc1)C(Br)C(C[N+](=O)[O-])c1ccccc1 (configuration not stated) | % | 99 |
| CC(C)(CC(=O)Nc1ccccc1)C(=O)O | % | -7.05 |
| COC(=O)CCC(=O)CC(=O)C(=O)Nc1ccc(F)cc1 | % | 3.75 |
| CCC(C)C1CCCCC1OC(=O)CCl (configuration not stated) | % | -14.8 |
| COc1ccc(N2C(=O)/C(=C\c3ccc(N(CCC#N)CCC#N)cc3)N=C2COc2ccccc2)cc1 | % | -2.2 |
| O=C(O)C1CSC2(CCCN(Cc3ccccc3)C2)N1 (configuration not stated) | % | -29.4 |
| Nc1nc(N)c(N2CCN(Cc3ccccc3)CC2)c(Cl)n1 | % | 10.8 |
| N#CC1=C(O)NC(O)=C(C#N)C12C(=O)Nc1ccccc12 | % | 2.85 |
| Cl/C(=C\c1ccccc1)c1ccccc1 | % | -6.55 |
| CCOC(=O)CC(=O)c1ccc(Cl)cc1 | % | 12.9 |
| CCc1ccccc1NC(=O)C(=O)C(C(=O)c1ccc(OC)cc1)c1ccc(OC)cc1 (configuration not stated) | % | 11.9 |
| CC(CCc1nc2ccccc2[nH]1)c1nc2ccccc2[nH]1 (configuration not stated) | % | 2.05 |
| C[N+]1(CSC(=O)c2ccccc2)CCCCC1 | % | 11.5 |
| COC1(OC)C(c2ccc([N+](=O)[O-])cc2)C([N+](=O)[O-])C1(OC)OC (configuration not stated) | % | -16.1 |
| Cc1nn(C(=O)c2c(-c3ccccc3)noc2C)c(C)c1N=Nc1cc(C(F)(F)F)cc(C(F)(F)F)c1 | % | -8.85 |
| CC1OC(n2cc(Cl)c(=O)[nH]c2=O)C=C(OC(=O)c2ccccc2)C1=O (configuration not stated) | % | -27.4 |
| CCOc1ccc2[nH]c(C)c(CC(=O)O)c2c1 | % | -9.25 |
| O=[N+]([O-])c1cccc(NC(c2ccccc2)S(=O)(=O)O)c1 (configuration not stated) | % | -18.6 |
| O=C1CN(C(=O)Nc2ccccc2)c2ccccc2N1 | % | -25.5 |
| CC(=O)c1cc2c(cc1C(C)C)C(C)(C)C(C)CC2(C)C (configuration not stated) | % | -19.2 |
| O=S(=O)(OC12CCCCC1CN1CCCCC1C2)c1ccc(Br)cc1 (configuration not stated) | % | 9.5 |
| O=S(Cc1cnc2ccccc2c1)c1nc2ccccc2nc1-c1cccs1 (configuration not stated) | % | -28.8 |
| CCc1ccccc1NC(=O)CCc1nc(=S)[nH][nH]1 | % | 9.6 |
| O=C(/C=C\c1cccc2ccccc12)c1cccc2ccccc12 | % | 12.8 |
| O=C1OC(/C=C/c2ccccc2)=NC/1=C\c1ccccc1Cl | % | 15.4 |
| COC1C(=O)c2ccccc2N1C(C)=O (configuration not stated) | % | -2.25 |
| CN(C)c1nc(=S)c2cn[nH]c2[nH]1 | % | 0 |
| COc1ccc2c(c1)CCC1=C2CCC(C(=O)O)C1(C)C(=O)O (configuration not stated) | % | -3 |
| COc1ccc(CC#N)cc1OC | % | -8.3 |
| CCOC(=O)Nc1cc(Nc2ccc(Cl)cc2)c2nc(-c3ccc(Cl)cc3)c(-c3ccc(Cl)cc3)nc2n1 | % | -0.9 |
| Fc1cccc(-c2nnc(-c3cccc(F)c3)o2)c1 | % | -10.1 |
| Cc1ccc(NC(=S)NC(=O)c2cccc([N+](=O)[O-])c2)cc1C | % | 15.5 |
| O=C(O)/C(=C/C=C/c1ccccc1)c1csc(-c2nc(/C(=C\C=C\c3ccccc3)C(=O)O)cs2)n1 | % | 13.3 |
| CCCCC(=O)N1SC(NC(=O)OC)=Nc2ccccc21 | % | 42.4 |
| Cc1ccc(C(=O)CC2(O)C(=O)Nc3ccccc32)cc1 (configuration not stated) | % | 17.4 |
